biological target: PDGFRB (Homo sapiens); construct: Kinases are expressed as either kinase domains or full length constructs; made in house; assay: Kinase inhibition assay (33P transfer), PDGFRB; assay type: biochemical; details: read-out: PDGFRB-1
Sequence (P09619 33-1106, species assumed): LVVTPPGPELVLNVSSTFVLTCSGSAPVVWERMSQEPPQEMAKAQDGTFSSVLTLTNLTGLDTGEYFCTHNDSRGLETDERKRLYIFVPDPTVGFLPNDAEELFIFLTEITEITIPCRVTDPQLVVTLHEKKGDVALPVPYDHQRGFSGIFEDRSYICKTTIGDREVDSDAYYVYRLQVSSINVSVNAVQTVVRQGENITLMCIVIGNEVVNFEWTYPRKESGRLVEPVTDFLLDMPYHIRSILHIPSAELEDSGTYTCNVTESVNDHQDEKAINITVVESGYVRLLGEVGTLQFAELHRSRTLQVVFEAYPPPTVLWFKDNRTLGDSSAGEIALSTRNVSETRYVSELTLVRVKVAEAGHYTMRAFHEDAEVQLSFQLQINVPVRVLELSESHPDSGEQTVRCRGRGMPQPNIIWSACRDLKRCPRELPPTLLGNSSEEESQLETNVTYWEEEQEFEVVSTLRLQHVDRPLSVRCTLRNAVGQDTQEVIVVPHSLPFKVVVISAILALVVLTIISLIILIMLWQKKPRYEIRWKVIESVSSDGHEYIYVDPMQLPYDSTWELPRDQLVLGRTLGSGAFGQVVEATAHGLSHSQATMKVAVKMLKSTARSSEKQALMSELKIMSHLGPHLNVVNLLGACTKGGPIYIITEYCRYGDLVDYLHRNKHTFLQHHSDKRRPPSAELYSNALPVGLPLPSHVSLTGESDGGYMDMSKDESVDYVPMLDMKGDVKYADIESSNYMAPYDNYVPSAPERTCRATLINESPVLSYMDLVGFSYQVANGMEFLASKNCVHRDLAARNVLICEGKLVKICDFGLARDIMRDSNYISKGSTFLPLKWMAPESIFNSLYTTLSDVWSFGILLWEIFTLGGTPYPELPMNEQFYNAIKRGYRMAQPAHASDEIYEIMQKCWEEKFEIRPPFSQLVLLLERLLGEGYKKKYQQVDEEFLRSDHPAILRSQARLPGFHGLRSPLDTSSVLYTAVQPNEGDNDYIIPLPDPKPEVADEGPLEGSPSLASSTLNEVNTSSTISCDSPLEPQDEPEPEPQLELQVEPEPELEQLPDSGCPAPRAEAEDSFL
pIC50: −log10 of the molar value.
quantity_name: pIC50

Known results for compounds:
compound: OCc1cccc(Nc2ncnc(-c3cccnc3NCc3ccccc3)n2)c1
val: > 5.98
--
compound: COc1cc(Nc2ncnc(NC3CCc4ccccc43)n2)cc(OC)c1OC (stereo not drawn)
val: 5.05 to 5.21
--
compound: COc1ccc(Nc2ncnc(N(C)c3ccc4c(cnn4Cc4ccccc4)c3)n2)cc1OC
val: 5.29 to 6.07
--
compound: Fc1ccc(CNc2ncnc(Nc3cc(-c4ccco4)n[nH]3)n2)cc1
val: < 4.89
--
compound: CN(c1cccc(Cl)c1)c1ncnc(Nc2ccc(NC(=O)OC(C)(C)C)cc2)n1
val: < 4.98

Now for the compound whose pIC50 we want.
// recorded pIC50 for COC(=O)c1ccc(-c2cc(Nc3ncnc(NCc4ccco4)n3)[nH]n2)cc1 : < 4.94

---

Target: Lck (Homo sapiens, UniProt P06239)
Construct: Kinases are expressed as either kinase domains or full length constructs; made in house
Sequence (P06239 whole entry, species assumed, the tested form may be a part): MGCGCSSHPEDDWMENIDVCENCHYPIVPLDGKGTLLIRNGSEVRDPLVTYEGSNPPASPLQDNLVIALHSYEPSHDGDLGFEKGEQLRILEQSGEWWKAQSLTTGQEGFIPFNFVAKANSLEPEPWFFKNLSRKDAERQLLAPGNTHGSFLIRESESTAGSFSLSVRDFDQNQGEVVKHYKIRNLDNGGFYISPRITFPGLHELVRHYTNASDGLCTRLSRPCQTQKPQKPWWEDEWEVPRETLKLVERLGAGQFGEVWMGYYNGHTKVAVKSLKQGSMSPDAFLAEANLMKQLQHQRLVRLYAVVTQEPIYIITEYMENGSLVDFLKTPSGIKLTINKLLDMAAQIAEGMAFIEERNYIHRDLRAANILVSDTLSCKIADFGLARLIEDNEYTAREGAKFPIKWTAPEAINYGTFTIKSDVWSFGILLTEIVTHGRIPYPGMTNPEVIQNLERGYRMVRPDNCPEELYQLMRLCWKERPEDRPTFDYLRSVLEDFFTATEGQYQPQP
Assay: Kinase inhibition assay (33P transfer), Lck
Assay type: biochemical
Settings: read-out: Lck-1
Description: The inhibitor compounds described herein are screened in the following manner. […] Kinases are expressed as either kinase domains or full length constructs fused to glutathione S-transferase (GST) or polyHistidine tagged fusion proteins in either E. colior Baculovirus-High Five expression systems. […]
pIC50: −log10 of the molar value.
quantity_name: pIC50

Known results for molecules:
smiles: Clc1cccc(Nc2ncnc(Nc3cc(-c4ccccc4)n[nH]3)n2)c1
pIC50: < 4.91

smiles: COc1cc(Nc2ncnc(-n3c(N[C@@H](CO)c4ccccc4)nc4ccccc43)n2)cc(OC)c1OC
pIC50: > 6.11

// recorded pIC50 for CC(C)Nc1ncccc1-c1ncnc(Nc2ccc(C(N)=O)cc2)n1 : > 5.94

// recorded pIC50 for COc1cc(Nc2ncnc(-c3cccnc3Nc3cccc(C(N)=O)c3)n2)cc(OC)c1OC : > 6.07

---

# IC50 per record follows
target: Kdr (Homo sapiens); construct: Kinases are expressed as either kinase domains or full length constructs; made in house; test: Kinase inhibition assay (33P transfer), Kdr; format: biochemical; settings: read-out: KDR-1

Known results for compounds:
compound: Cc1ccc2c(c1)CCCN2c1ncnc(NCC2CCCO2)n1 (centres unmarked)
IC50: > 13800 nM
--
compound: O=c1[nH]c2ccccc2n1-c1ncnc(Nc2ccccn2)n1
IC50: > 14700 nM
--
compound: Cc1cccc(Nc2ncnc(Nc3cc(-c4ccccc4)n[nH]3)n2)c1
IC50: 1160 to 6990 nM
--
compound: Nc1nc2ccccc2n1-c1ncnc(Nc2ccc(OC(F)(F)F)cc2)n1
IC50: 1030 to 6200 nM
--
compound: COC(=O)Cc1cccc(Nc2ncnc(-n3c(NCc4ccccn4)nc4ccccc43)n2)c1
IC50: < 857 nM
--
compound: COc1ccc(-c2cc(Nc3ncnc(Nc4ccc(CC(N)=O)cc4)n3)[nH]n2)cc1
IC50: < 961 nM
--
compound: COc1cc(Nc2ncnc(-n3c(N[C@@H](C)c4ccccc4)nc4ccccc43)n2)cc(OC)c1OC
IC50: < 804 nM
--
compound: CC(=O)Nc1ccc(Nc2ncnc(N3CCCc4cc(C)ccc43)n2)cc1
IC50: 1070 to 6410 nM
--
compound: COc1cc(Nc2ncnc(Nc3cccc(NC(=O)O[C@@H]4CCOC4)c3)n2)cc(OC)c1OC
IC50: 829 to 4970 nM
--
compound: COc1ccc([C@@H](C)Nc2nc3ccccc3n2-c2ncnc(Nc3cc(OC)c(OC)c(OC)c3)n2)cc1
IC50: 758 to 4550 nM

// recorded IC50 for Cc1ccc2c(c1)CCCN2c1ncnc(NCCN2CCOCC2)n1 : > 12700 nM

// recorded IC50 for COc1cc(Nc2ncnc(-n3c(N[C@H](C)c4ccccc4)nc4ccccc43)n2)cc(OC)c1OC : < 804 nM

// recorded IC50 for COc1ccc(Nc2ncnc(NCCCOC(C)C)n2)cc1OC : > 13000 nM

// recorded IC50 for COc1ccc(Nc2ncnc(-n3c(=O)[nH]c4ccccc43)n2)cc1OC : < 1100 nM

// recorded IC50 for COc1cc(Nc2ncnc(-c3cccnc3N)n2)cc(OC)c1OC : < 1130 nM

// recorded IC50 for COc1cc(Nc2ncnc(Nc3cc(-c4ccc(C(=O)NCCc5ccccc5)cc4)n[nH]3)n2)cc(OC)c1OC : > 7940 nM

// recorded IC50 for O=C(O)Cc1cccc(Nc2ncnc(-n3c(NCc4ccccn4)nc4ccccc43)n2)c1 : < 884 nM

---

target: Zap-70 (Homo sapiens); construct: Kinases are expressed as either kinase domains or full length constructs; made in house; assay: Kinase inhibition assay (33P transfer), Zap-70; assay type: biochemical; conditions: Table 3, class symbols; read-out: Zap-1
Sequence (P43403 whole entry, species assumed, the tested form may be a part): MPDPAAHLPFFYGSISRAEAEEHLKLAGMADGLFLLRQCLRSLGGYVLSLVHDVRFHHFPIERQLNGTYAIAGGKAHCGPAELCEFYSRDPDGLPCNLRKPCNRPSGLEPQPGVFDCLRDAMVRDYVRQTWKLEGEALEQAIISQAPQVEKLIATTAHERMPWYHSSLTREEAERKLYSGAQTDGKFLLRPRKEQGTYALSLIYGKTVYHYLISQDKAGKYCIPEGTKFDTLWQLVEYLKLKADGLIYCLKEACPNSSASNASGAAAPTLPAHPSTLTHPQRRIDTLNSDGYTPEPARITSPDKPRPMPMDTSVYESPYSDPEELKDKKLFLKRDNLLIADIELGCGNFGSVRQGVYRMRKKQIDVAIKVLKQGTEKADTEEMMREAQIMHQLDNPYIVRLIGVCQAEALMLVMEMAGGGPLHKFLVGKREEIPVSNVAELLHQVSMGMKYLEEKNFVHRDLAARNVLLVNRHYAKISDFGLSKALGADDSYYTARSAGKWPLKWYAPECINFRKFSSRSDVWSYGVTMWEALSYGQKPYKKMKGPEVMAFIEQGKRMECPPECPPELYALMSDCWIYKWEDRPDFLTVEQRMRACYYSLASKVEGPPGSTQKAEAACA
pIC50: −log10 of the molar value.
# pIC50 per record follows

compound: COC(=O)c1ccc(-c2cc(Nc3ncnc(Nc4ccc(N5CCOCC5)cc4)n3)[nH]n2)cc1
pIC50: < 5.02

// recorded pIC50 for COc1ccc(Nc2ncnc(Nc3ccc4c(c3)CCC4)n2)cc1OC : < 4.91

// recorded pIC50 for COC(=O)c1ccc(-c2cc(Nc3ncnc(NCc4ccco4)n3)[nH]n2)cc1 : < 4.94

// recorded pIC50 for COc1cc(Nc2ncnc(-c3cccnc3Nc3ccc(Oc4ccccc4)cc3)n2)cc(OC)c1OC : < 5.06

// recorded pIC50 for Fc1ccc(CNc2ncccc2-c2ncnc(Nc3cccc(Cn4ccnc4)c3)n2)cc1 : 5.11 to 5.28

// recorded pIC50 for COc1ccc(Nc2ncnc(Nc3cccc(C#N)c3)n2)cc1OC : < 4.89

// recorded pIC50 for CN(c1ccc2c(cnn2Cc2ccccc2)c1)c1ncnc(Nc2cccc(Cc3nnn[nH]3)c2)n1 : < 5.04

// recorded pIC50 for c1coc(-c2cc(Nc3ncnc(Nc4ccc(-c5csnn5)cc4)n3)n[nH]2)c1 : 5.23 to 6.00

// recorded pIC50 for COc1cc(Nc2ncnc(NC(=O)Cc3ccccc3)n2)cc(OC)c1OC : < 4.94

---

molecular target: Itk (Homo sapiens); construct: Kinases are expressed as either kinase domains or full length constructs; made in house; experiment: Kinase inhibition assay (33P transfer), Itk; assay type: biochemical; details: Table 3; read-out: Itk-1
Sequence (Q08881 whole entry, species assumed, the tested form may be a part): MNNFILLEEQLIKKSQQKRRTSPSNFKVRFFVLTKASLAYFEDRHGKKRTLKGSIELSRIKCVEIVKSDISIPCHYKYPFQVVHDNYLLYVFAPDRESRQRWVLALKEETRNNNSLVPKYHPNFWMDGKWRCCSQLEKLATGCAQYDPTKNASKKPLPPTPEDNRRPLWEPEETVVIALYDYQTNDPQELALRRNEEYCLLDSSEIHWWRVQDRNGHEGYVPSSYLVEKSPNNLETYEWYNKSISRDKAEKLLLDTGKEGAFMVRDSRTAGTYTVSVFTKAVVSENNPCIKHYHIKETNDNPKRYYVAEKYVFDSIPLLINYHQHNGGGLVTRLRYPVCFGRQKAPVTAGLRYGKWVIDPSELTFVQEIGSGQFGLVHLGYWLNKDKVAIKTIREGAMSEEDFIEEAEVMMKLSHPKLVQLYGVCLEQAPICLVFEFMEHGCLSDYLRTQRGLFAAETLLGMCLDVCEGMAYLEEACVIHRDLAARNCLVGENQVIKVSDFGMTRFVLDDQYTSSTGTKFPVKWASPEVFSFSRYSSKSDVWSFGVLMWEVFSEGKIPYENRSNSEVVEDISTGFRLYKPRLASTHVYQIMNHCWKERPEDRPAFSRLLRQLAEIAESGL
pIC50: −log10 of the molar value.
quantity_name: pIC50

Known results for compounds:
smiles: COc1cc(Nc2ncnc(-n3c(Cl)nc4ccccc43)n2)cc(OC)c1OC
quantity_name: pIC50
val: < 4.96

smiles: Nc1ncnc(Nc2ccc(F)cc2F)n1
quantity_name: pIC50
val: < 4.70

smiles: NS(=O)(=O)c1ccc(CNc2ncnc(-n3c(=O)[nH]c4ccccc43)n2)cc1
quantity_name: pIC50
val: < 4.95

smiles: COc1cc(Nc2ncnc(Nc3ccccc3F)n2)cc(OC)c1OC
quantity_name: pIC50
val: < 4.92

smiles: O=c1[nH]c2ccccc2n1-c1ncnc(Nc2ccc(-c3cnco3)cc2)n1
quantity_name: pIC50
val: < 4.92

smiles: COc1cc(Nc2ncnc(-n3c(NCc4ccncc4)nc4ccccc43)n2)cc(OC)c1OC
quantity_name: pIC50
val: < 5.03

// recorded pIC50 for COc1cc(Nc2ncnc(N(CC(=O)O)c3ccc4c(c3)OCO4)n2)cc(OC)c1OC : < 5.01

// recorded pIC50 for COc1cccc(Nc2ncnc(-c3ccccc3)n2)c1 : < 4.79

// recorded pIC50 for COc1cc(Nc2ncnc(-c3ccc(C)cc3)n2)cc(OC)c1OC : < 4.89

---

Measurement record for ErbB2 (Homo sapiens, UniProt P04626); quantity recorded: IC50.

Known results for molecules:
molecule: c1ccc(Cn2ncc3cc(Nc4ncnc(Nc5ccc6ncsc6c5)n4)ccc32)cc1
assayed_target: ErbB2 (Homo sapiens, UniProt P04626)
Sequence (P04626 23-1255, species assumed): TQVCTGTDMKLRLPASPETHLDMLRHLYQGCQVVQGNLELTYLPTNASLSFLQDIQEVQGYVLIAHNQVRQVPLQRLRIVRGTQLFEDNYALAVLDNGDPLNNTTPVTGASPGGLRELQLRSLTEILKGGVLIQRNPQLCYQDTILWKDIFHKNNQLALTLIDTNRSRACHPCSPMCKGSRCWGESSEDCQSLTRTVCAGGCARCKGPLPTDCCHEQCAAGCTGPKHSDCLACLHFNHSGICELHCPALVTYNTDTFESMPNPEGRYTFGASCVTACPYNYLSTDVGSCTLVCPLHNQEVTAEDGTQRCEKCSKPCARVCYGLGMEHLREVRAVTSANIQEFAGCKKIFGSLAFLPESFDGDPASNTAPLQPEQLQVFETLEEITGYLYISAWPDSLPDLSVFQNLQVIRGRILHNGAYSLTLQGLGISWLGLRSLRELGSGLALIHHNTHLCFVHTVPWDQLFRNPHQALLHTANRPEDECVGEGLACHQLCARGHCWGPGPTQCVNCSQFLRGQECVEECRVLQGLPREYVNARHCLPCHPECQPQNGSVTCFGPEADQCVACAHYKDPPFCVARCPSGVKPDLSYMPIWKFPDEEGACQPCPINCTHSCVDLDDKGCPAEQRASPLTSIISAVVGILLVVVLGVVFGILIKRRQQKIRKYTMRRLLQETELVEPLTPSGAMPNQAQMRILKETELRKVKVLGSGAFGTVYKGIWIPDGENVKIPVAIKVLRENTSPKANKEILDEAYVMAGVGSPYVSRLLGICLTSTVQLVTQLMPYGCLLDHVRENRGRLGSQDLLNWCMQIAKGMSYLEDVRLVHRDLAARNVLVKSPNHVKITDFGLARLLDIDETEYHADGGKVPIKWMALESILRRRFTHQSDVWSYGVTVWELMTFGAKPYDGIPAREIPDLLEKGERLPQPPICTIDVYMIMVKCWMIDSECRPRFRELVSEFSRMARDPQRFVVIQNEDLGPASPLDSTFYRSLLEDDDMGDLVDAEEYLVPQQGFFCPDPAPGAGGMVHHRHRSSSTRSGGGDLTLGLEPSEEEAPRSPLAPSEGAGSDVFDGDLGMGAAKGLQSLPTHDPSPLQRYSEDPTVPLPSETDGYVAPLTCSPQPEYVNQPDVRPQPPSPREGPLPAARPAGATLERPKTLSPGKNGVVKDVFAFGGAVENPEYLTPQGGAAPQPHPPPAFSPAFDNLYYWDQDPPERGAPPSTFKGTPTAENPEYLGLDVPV
IC50: < 0.888 µM
//
molecule: COc1cc(Nc2ncnc(Nc3cccc(F)c3)n2)cc(OC)c1OC
assayed_target: ErbB2 (Homo sapiens, UniProt P04626)
IC50: 1.08 to 6.46 µM
//
molecule: Cc1ccc2c(c1)CCCN2c1ncnc(Nc2cccc(Cl)c2C)n1
assayed_target: ErbB2 (Homo sapiens, UniProt P04626)
IC50: 6.56 to 9.57 µM
//
molecule: COc1cc(Nc2ncnc(-n3ccnc3Cl)n2)cc(OC)c1OC
assayed_target: ErbB2 (Homo sapiens, UniProt P04626)
IC50: > 12.4 µM
//
molecule: COc1cc(Nc2ncnc(Nc3ccc(OCc4ccccc4)cc3)n2)cc(OC)c1
assayed_target: ErbB2 (Homo sapiens, UniProt P04626)
IC50: 0.931 to 5.59 µM

Query N#CCc1ccc(Nc2ncnc(Nc3ccc4c(cnn4Cc4ccccc4)c3)n2)cc1 on ErbB2 (Homo sapiens, UniProt P04626); IC50 returned: < 0.925 µM

Query Clc1cccc(Nc2ncnc(Nc3ccc4[nH]ncc4c3)n2)c1 on ErbB2 (Homo sapiens, UniProt P04626); IC50 returned: 1.18 to 7.11 µM

Query COc1cc(Nc2ncnc(-c3cccnc3N[C@H](C)c3ccccc3)n2)cc(OC)c1OC on ErbB2 (Homo sapiens, UniProt P04626); IC50 returned: > 9.81 µM

Query COc1cc(Nc2ncnc(-n3c(Nc4ccccc4C(C)C)nc4ccccc43)n2)cc(OC)c1OC on ErbB2 (Homo sapiens, UniProt P04626); IC50 returned: > 8.8 µM

Query CN(c1cccc(Cl)c1)c1ncnc(Nc2ccncc2)n1 on ErbB2 (Homo sapiens, UniProt P04626); IC50 returned: > 14.4 µM

Query COc1cc(Nc2ncnc(-c3cccnc3NCC(C)c3ccccc3)n2)cc(OC)c1OC (stereo not drawn) on ErbB2 (Homo sapiens, UniProt P04626); IC50 returned: > 9.52 µM
